assayOverview: Vemurafenib pharmacokinetics in huPXR/huCAR/huCYP3A4/3A7 mice
Assay type: in vivo, mouse
testConditions: male, huPXR/huCAR/huCYP3A4/3A7, mouse, whole blood, po, 50 mg/kg, AUCall of vemurafenib, vehicle (CO) alone, Figure 5A
assayEndpoint: AUC

# moleculeSmiles, assayEndpoint, testResult
data = [
    ("CCCS(=O)(=O)Nc1ccc(F)c(C(=O)c2c[nH]c3ncc(-c4ccc(Cl)cc4)cc23)c1F", "AUC", "391 µg·h/mL"),
]

---

measurementTarget: CYP3A4 (Homo sapiens, UniProt P08684)
Sequence (P08684 2-503): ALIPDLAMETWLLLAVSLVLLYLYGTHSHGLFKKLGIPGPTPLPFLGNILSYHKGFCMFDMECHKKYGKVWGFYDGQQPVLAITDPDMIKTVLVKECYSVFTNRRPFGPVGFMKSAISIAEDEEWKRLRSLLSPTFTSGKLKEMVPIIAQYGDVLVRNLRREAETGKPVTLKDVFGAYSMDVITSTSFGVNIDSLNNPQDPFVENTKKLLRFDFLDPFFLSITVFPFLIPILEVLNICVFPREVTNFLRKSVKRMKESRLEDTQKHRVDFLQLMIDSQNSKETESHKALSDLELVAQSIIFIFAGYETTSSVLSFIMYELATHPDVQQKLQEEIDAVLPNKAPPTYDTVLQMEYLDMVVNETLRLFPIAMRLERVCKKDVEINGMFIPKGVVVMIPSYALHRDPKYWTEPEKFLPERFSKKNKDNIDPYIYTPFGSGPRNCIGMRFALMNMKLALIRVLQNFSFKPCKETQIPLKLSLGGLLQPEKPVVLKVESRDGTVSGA

# compound, IC50, µM
records = [
    ("CCCS(=O)(=O)Nc1ccc(F)c(C(=O)c2c[nH]c3ncc(-c4ccc(Cl)cc4)cc23)c1F [vemurafenib, Vemurafenib]", 14.9),
]

---

assayOverview: Vemurafenib pharmacokinetics in huPXR/huCAR/huCYP3A4/3A7 mice
Format: in vivo, mouse
testConditions: male, huPXR/huCAR/huCYP3A4/3A7, mouse, whole blood, po, 50 mg/kg, Cmax of vemurafenib, vehicle (CO) then elacridar, Figure 5A

# compound, Cmax (ng/mL)
data = [
    ("CCCS(=O)(=O)Nc1ccc(F)c(C(=O)c2c[nH]c3ncc(-c4ccc(Cl)cc4)cc23)c1F [vemurafenib, Vemurafenib]", 37800),
]

---

assayOverview: Vemurafenib pharmacokinetics in huPXR/huCAR/huCYP3A4/3A7 mice
Type: in vivo, mouse
testConditions: male, huPXR/huCAR/huCYP3A4/3A7, mouse, whole blood, po, 50 mg/kg, AUCall of vemurafenib, huPXR/huCAR/huCYP3A4/3A7 mice, RIF pre-treatment, Figure 3A
assayEndpoint: AUC (µg·h/mL)

# moleculeSmiles, assayEndpoint, measureUnit, testResult
data = [
    ("CCCS(=O)(=O)Nc1ccc(F)c(C(=O)c2c[nH]c3ncc(-c4ccc(Cl)cc4)cc23)c1F", "AUC", "µg·h/mL", 121),
]

---

measurementTarget: CYP2C9 (Homo sapiens)
Sequence (P11712 whole entry): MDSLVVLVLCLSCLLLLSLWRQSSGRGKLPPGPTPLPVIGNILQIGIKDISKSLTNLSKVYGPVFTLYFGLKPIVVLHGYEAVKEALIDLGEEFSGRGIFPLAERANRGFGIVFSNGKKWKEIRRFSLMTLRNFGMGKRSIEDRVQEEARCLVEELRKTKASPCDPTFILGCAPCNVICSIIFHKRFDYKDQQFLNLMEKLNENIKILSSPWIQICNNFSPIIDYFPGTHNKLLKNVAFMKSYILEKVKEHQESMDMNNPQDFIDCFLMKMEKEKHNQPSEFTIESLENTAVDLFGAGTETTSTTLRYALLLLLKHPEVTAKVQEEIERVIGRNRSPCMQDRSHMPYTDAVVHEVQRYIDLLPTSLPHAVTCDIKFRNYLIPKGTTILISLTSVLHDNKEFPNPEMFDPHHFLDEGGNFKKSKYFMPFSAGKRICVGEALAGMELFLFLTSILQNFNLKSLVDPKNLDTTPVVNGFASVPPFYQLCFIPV
assayOverview: in vitro
testConditions: recombinant CYP2C9, pH 7.4

# moleculeSmiles, Km at 0.15 h (µM)
rows = [
    ("CCCS(=O)(=O)Nc1ccc(F)c(C(=O)c2c[nH]c3ncc(-c4ccc(Cl)cc4)cc23)c1F", 20.4),
]

---

measurementTarget: UniProt:O75469
Sequence (O75469 whole entry): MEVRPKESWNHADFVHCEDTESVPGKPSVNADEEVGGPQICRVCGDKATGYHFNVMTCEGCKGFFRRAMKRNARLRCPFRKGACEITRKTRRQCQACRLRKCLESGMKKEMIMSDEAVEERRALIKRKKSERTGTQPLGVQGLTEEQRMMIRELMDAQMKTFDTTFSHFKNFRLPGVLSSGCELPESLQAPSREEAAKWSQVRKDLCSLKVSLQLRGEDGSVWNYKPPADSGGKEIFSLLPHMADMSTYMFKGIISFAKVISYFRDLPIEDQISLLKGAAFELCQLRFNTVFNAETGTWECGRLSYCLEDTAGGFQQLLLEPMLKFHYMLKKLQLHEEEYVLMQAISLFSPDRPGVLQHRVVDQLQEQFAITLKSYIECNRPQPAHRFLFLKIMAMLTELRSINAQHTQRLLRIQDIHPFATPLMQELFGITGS
assayOverview: PXR-transactivation assay in DPX2 cells
assayEndpoint: EC50

# moleculeSmiles, assayEndpoint, testResult
data = [
    ("CCCS(=O)(=O)Nc1ccc(F)c(C(=O)c2c[nH]c3ncc(-c4ccc(Cl)cc4)cc23)c1F", "EC50", "8.13 µM"),
]

---

assayOverview: Vemurafenib pharmacokinetics in huPXR/huCAR/huCYP3A4/3A7 mice
Type: in vivo, mouse
testConditions: male, huPXR/huCAR/huCYP3A4/3A7, mouse, whole blood, po, 50 mg/kg, AUCall of vemurafenib, RIF alone, Figure 5A
assayEndpoint: AUC (ng·h/mL)

# compound, measureUnit, testResult
data = [
    ("CCCS(=O)(=O)Nc1ccc(F)c(C(=O)c2c[nH]c3ncc(-c4ccc(Cl)cc4)cc23)c1F [vemurafenib, Vemurafenib]", "ng·h/mL", 90000),
]

---

Type: in vivo
testConditions: huPXR/huCAR/huCYP3A4/3A7, mouse, whole blood, po, 100 mg/kg

# moleculeSmiles, AUC [µM·h]
measured = [
    ("CCCS(=O)(=O)Nc1ccc(F)c(C(=O)c2c[nH]c3ncc(-c4ccc(Cl)cc4)cc23)c1F", 1140),
]

---

assayOverview: Vemurafenib pharmacokinetics in huPXR/huCAR/huCYP3A4/3A7 mice
Assay type: in vivo, mouse
testConditions: male, huPXR/huCAR/huCYP3A4/3A7, mouse, whole blood, po, 50 mg/kg, AUCall of vemurafenib, vehicle (CO) then elacridar, Figure 5A

# moleculeSmiles, AUC / µg·h/mL
data = [
    ("CCCS(=O)(=O)Nc1ccc(F)c(C(=O)c2c[nH]c3ncc(-c4ccc(Cl)cc4)cc23)c1F", 684),
]

---

assayOverview: Vemurafenib pharmacokinetics in huPXR/huCAR/huCYP3A4/3A7 mice
Type: in vivo, mouse
testConditions: male, huPXR/huCAR/huCYP3A4/3A7, mouse, whole blood, po, 50 mg/kg, AUCall of vemurafenib, huPXR/huCAR/huCYP3A4/3A7 mice, vehicle pre-treatment, Figure 3A

# compound, AUC / µg·h/mL
measured = [
    ("CCCS(=O)(=O)Nc1ccc(F)c(C(=O)c2c[nH]c3ncc(-c4ccc(Cl)cc4)cc23)c1F [vemurafenib, Vemurafenib]", 432),
]
